Recorded values, source PubChem BioAssay (NCI).

MEASUREMENT PROTOCOL: NCI Yeast Anticancer Drug Screen. Data for the bub3 strain (AID 167)
PROTOCOL CONDITIONS: S. cerevisiae bub3 mutant strain, hits give high values; at 50.0 µM unless noted
Compounds without any hit were thinned out: in the full panel of roughly 79,000, 15% have a hit.

SMILES DATA | UNIT SYMBOL | growth inhibition
CSc1nc(N)c(I)c(Cl)n1 | % | -14.6
CCOC(=O)N(C)C1(c2ccccc2)CCN(CCCC(=O)c2ccc(F)cc2)CC1 | % | -7
C/C(=C\C(=O)c1ccc(Sc2ccccc2)cc1)c1ccc(Sc2ccccc2)cc1 | % | 24.1
Clc1ccc(/C=N\OCc2ccc(Cl)c(Cl)c2)cc1Cl | % | -4.85
CC/C(C)=N\NS(=O)(=O)c1ccc(NC(C)=O)cc1 | % | -33.5
C=CC(=O)NC12CC3CC(CC(C3)C1)C2 | % | -15.6
O=C1NC(N2CCOCC2)=N/C1=C\c1ccc(Cl)cc1 | % | -11.1
Cc1cc(C)[nH]c(=O)c1 | % | 20.1
CCc1ccc2c(c1)C(=O)c1ccccc1C2=O | % | 25.7
CN(c1ccccc1)c1c(Cl)c(=O)oc2c1ccc1nc(-c3ccccc3)sc12 | % | -4.3

* * *

Entries and their growth inhibition
MEASUREMENT PROTOCOL: NCI Yeast Anticancer Drug Screen. Data for the bub3 strain (AID 167)
PROTOCOL CONDITIONS: S. cerevisiae bub3 mutant strain, hits give high values; at 50.0 µM unless noted
About 79,000 compounds went through this panel and 15% of them were active in at least one assay; those are over-represented in the sample as a whole.
MEASURED ENDPOINT: growth inhibition (%)

COMPOUND | QUANTITATIVE READOUT
O=C(Cc1csc(-c2nc(CC(=O)NNc3ccccc3)cs2)n1)NNc1ccccc1 | 2.75
O=C(CCC(=O)c1ccccc1)NCc1ccccc1 | 6.5
CC(=O)N(C)c1ccccc1 | -8.45
O=COCCCOCCCOc1ccccc1 | -5.6
COc1cccc(C2SC(N)=Nc3c2c(C)nn3C(=O)c2ccccc2O)c1 (configuration not stated) | 38
O=C(O)C1Oc2cc3ccccc3cc2O1 | 23.1
C=C1CC(COc2ccc3c(C)c(C)c(=O)oc3c2C)(c2ccccc2)OC1=O (configuration not stated) | 6.7
COc1ccc(NC(=O)Nc2ccc(F)cc2)c(OC)c1 | 24.2
OCC1OC(OC2C(CO)OC(O)C(O)C2O)C(O)C(O)C1O (configuration not stated) | 20.1
CC1CC(C)OC(C(Br)CBr)O1 (configuration not stated) | -13.9
CCOc1ccc(NC(=O)C(=O)CC(=O)c2c(C)n([O-])c3ccccc3[n+]2=O)cc1 | 0.1
O=C(/C=C/c1ccc(OCC(=O)N2CCN(c3ccccc3)CC2)cc1)c1ccccc1 | 16.7

* * *

MEASUREMENT PROTOCOL: NCI Yeast Anticancer Drug Screen. Data for the mec2-1 strain (AID 157)
PROTOCOL CONDITIONS: S. cerevisiae mec2-1 strain, hits give high values; at 50.0 µM unless noted
This is part of a sample that, as a whole, favours compounds with a hit. Of some 79,000 tested, about 15% had one in any assay. Activity calls are given as the source filed them. Rule as the data show it: active = growth inhibition above about 70%; inactive = the rest.
Entries and their growth inhibition
MEASURED ENDPOINT: growth inhibition

COMPOUND | MEASURED ENDPOINT | RESULT
C1CSCCSS[C@@H]2CCCCC2SC1 (stereo partly drawn) | growth inhibition | -25.1% (inactive)
N#C/C(=C/n1c(=S)[nH]c2ccccc21)C(N)=O | growth inhibition | -38.6% (inactive)
O=[N+]([O-])/C=C/c1cn(CCCCCCCCCCCCn2cc(/C=C/[N+](=O)[O-])c3ccccc32)c2ccccc12 | growth inhibition | -24.6% (inactive)

* * *

Entries and their growth inhibition
MEASUREMENT PROTOCOL: NCI Yeast Anticancer Drug Screen. Data for the sgs1 mgt1 strain (AID 161);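 further: 0% = growth of cultures given vehicle only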
PROTOCOL CONDITIONS: S. cerevisiae sgs1 mgt1 strain, hits give high values; at 50.0 µM unless noted
This is part of a sample that, as a whole, favours compounds with a hit. Of some 79,000 tested, about 15% had one in any assay.

SMILES DATA | growth inhibition, %
O=C(CCCn1ccnc1[N+](=O)[O-])NCCn1cnc([N+](=O)[O-])n1 | -6.05
O=S1(=O)OCCOS(=O)(=O)C1Cc1nc2ccccc2[nH]1 | 1.25
COc1ccc2c(c1)[n+](=O)c(C(=O)C/C(=N/NC(=O)C[N+](C)(C)C)C(=O)Nc1cccc(C)c1C)c(C)n2O | -41
NNC(=O)CCC(=O)O | 1.7

* * *

MEASUREMENT PROTOCOL: NCI Yeast Anticancer Drug Screen. Data for the mec2-1 strain (AID 157)
PROTOCOL CONDITIONS: S. cerevisiae mec2-1 strain; at 50.0 µM unless noted
The panel holds about 79,000 compounds, 15% with a hit somewhere; the sample as a whole holds those more often. The source made the active and inactive calls. Cut-off read from the data, not from the text of the source: active = growth inhibition above about 70%; inactive = the rest.
Possible outcomes: active, inactive

COMPOUND | CAT
O=NN(CCCl)C(=O)Oc1ccccc1 | inactive
O=C(C#Cc1ccccc1)Nc1ccccc1CC(c1c[nH]c2ccccc12)c1c[nH]c2ccccc12 | inactive
CCOC(=O)C1(Cc2ccccc2)Cc2cc3c(cc2C1)CCC3 | inactive
CC1(O)C2CC3CC(C2)CC1C3 (stereo unspecified) | inactive
O=C1OCC(c2ccccc2)=C1c1ccccc1 | inactive
O=C(OCC1OCOC2C(COC(=O)c3ccccc3)OCOC12)c1ccccc1 (stereo unspecified) | inactive
CCCCCCCC(=O)C1C(=O)OC(C)(C)OC1=O | inactive
Cc1ccc(NCC2CC/C(=C\c3ccc(Cl)cc3)C2=O)cc1 (stereo unspecified) | inactive
CC1=NN2C(c3ccc([N+](=O)[O-])cc3)=CSC2=NC(C)(C)C1 | inactive
COc1cccc2c1C(=O)c1c(O)c3c(c(O)c1C2=O)C[C@@](O)(C(=O)CO)CC3OC1CC(O)C(O)C(C)O1 (stereo partly specified) | inactive
NC(N)=N/N=C(\c1ccc(C(F)(F)F)cc1)c1ccc(Cl)c(Cl)c1 | active

* * *

MEASUREMENT PROTOCOL: NCI Yeast Anticancer Drug Screen. Data for the rad50 strain (AID 155);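 further: 0% = growth of vehicle-only cultures of the same strain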
PROTOCOL CONDITIONS: S. cerevisiae rad50 strain growth inhibition, hits give high values; at 50.0 µM unless noted
Compounds without any hit were thinned out: in the full panel of roughly 79,000, 15% have a hit. Calls of active or inactive are those of the source. Rule as the data show it: active = growth inhibition above about 70%; inactive = the rest.

COMPOUND | growth inhibition
O=C(CC(=O)c1cc(Cl)ccc1O)c1ccc2ccccc2n1 | -0.35% (inactive)
COc1cc2c(c(OC)c1OC)-c1ccc(OC)c(=O)cc1[C@@H](NC=O)CC2 | -11% (inactive)
N.N.N.N.O=C(O)C1OCCOCCOC(C(=O)O)C(C(=O)O)OCCOCCOC1C(=O)O.[Pt+2].[Pt+2] (configuration not stated) | -33.2% (inactive)
Cc1c2c(c(O)c3sccc13)C(C)(C)OC2=O | -3.75% (inactive)
CCC(SC(CC)(CC)C(=O)O)C(N)=O (configuration not stated) | -9.9% (inactive)
O=C1CCCC2CCCC(=O)N12 | -1.35% (inactive)
O=C(c1ccccc1)C(F)S(=O)(=O)O (configuration not stated) | -5.7% (inactive)
Cc1ccc(NC(=O)c2cccc(OP(=O)(O)Nc3ccc(C)cc3)c2)cc1 | -13.7% (inactive)
C(=C/c1ccccc1)/c1ccccc1 | -6.45% (inactive)
CC(=O)N1C(=O)C2(c3ccccc31)c1cccc3c1C(=C1C(=O)OC(=O)C12)C(=O)N3C(C)=O (configuration not stated) | 64.5% (inactive)
O=NN(CCCl)C(=O)Oc1ccccc1 | -1.95% (inactive)
O=[N+]([O-])c1cccc(S/N=C/c2ccccc2O)c1 | 98.8% (active)
CC(CCCCCOC(=O)Nc1ccccc1)OC(=O)Nc1ccccc1 (configuration not stated) | 6.2% (inactive)
CCCCCCCCCCCCCCCCCCOC(=O)CC(C)=O | -2.75% (inactive)
O=C1c2sc(-c3ccc(Cl)cc3)cc2-n2cccc21 | 9.3% (inactive)
CCOC(=O)N(C)C1(c2ccccc2)CCN(CCCC(=O)c2ccc(F)cc2)CC1 | 23% (inactive)
Cc1ccc(C)n1-c1ccccc1 | -12.6% (inactive)
COC(=O)c1ccc(COC(=O)N2C=CCC2C(=O)O)cc1 (configuration not stated) | 20.2% (inactive)
CC(=O)Nc1ccc(-c2nnc(SCC(=O)Nc3cccc([N+](=O)[O-])c3)o2)cc1 | -2% (inactive)
O=C(OC1c2cccc3cccc(c23)C1O)c1ccccc1 (configuration not stated) | 8.2% (inactive)
C/C(=N\NC(N)=O)C1(O)CCCCC1 | -15.3% (inactive)
CN1C2=NCCN2C(=O)c2cc(Cl)ccc21 | 1.05% (inactive)
NC(=S)N/N=C/c1ccc(N)cn1 | -4.2% (inactive)
O=c1[nH]c2[nH]c(=S)[nH]c(=O)c2[nH]1 | 6.3% (inactive)
[N-]=[N+]=Nc1c(C=O)c(=O)n2c3c(cccc13)CCC2 | 17.2% (inactive)
CCCCC(O)CCC (configuration not stated) | -30.4% (inactive)
COC(=O)CSSC(C)C | -29.2% (inactive)
Cc1ccc(/C=N/NC(N)=S)nn1 | 3.45% (inactive)
COc1ccc(SSc2ccc(OC)cc2C(=O)O)c(C(=O)O)c1 | -4% (inactive)
CCOC(=O)CNC(=O)SCc1ccccc1 | -12.4% (inactive)
CSc1ccc(Nc2cc(=O)[nH]c(=O)[nH]2)cc1 | 14.6% (inactive)
COc1ccc(Cl)cc1NC(=O)Oc1ccc(NC(C)=O)cc1 | 3.2% (inactive)
NC(CCO)P(=O)(O)O (configuration not stated) | 13.3% (inactive)
Cc1cccc2c1/C(=C1/c3ccccc3C(=O)c3cccc(C)c31)c1ccccc1C2=O | -4.85% (inactive)
O=C(/C=C/c1ccc(OCC(=O)N2CCN(c3ccccc3)CC2)cc1)c1ccccc1 | 13% (inactive)
O=C(CCl)NNC1=Nc2ccc(Cl)cc2SC1 | -2.2% (inactive)
CC(C)CCO/N=C(\N)N=C(N)N | -17.4% (inactive)
